- METHOD_NOTES: Quantum yield measurements versus Acridine Yellow in EtOH
- Assay type: physicochemical
- CONDITION_SET: MKAC compound library; quantum yield
ASSAY_READOUT: φ (%)

I = CC(=O)Nc1ccc(C2=C3C=CC(N4CCCC4)=[N+]3[B-](F)(F)n3c2ccc3-n2cc(C3CC3)nn2)cc1
II = CCCCCC(O)c1cn(-c2ccc3n2[B-](F)(F)[N+]2=C(N(C)Cc4ccccc4)C=CC2=C3c2ccc(NC(C)=O)cc2)nn1 (racemic)
Qu. Between the entries labeled I and II , whose measured φ (%) is lower? Pick one; state its label.
Ans. I
(I: 2.35%, II: 3.467%)
